Data provenance is patent US5853984.

- study.target: Human neutrophil elastase (HNE) (Homo sapiens, UniProt P08246 P08246:30-267)
- Sequence (P08246 30-267, one chain of several): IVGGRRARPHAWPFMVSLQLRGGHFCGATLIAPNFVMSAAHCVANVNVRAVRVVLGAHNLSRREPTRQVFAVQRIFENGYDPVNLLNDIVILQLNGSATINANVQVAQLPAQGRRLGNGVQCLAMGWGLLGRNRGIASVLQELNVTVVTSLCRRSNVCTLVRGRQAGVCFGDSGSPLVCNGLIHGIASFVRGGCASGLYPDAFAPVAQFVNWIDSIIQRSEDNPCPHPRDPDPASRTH
- test.protocol: filter; 150 mM NaCl, 100 mM Tris-HCl pH 7.0, 2 mM MgCl2, 6 mM KCl, 0.02% HSA, 37 C
- assay.conditions: tags: Athens Research and Technology, salt-free lyophilized solid; label: fluorescein; G-quartet with duplex ends
metric.name: Kd (nM)

binder	unit.symbol	readout.number
TAGCGATACTGCGTGGGTTGGGGCGGGTAGGGCCAGCAGTCTCGT (ssDNA, 5' fluorescein followed by two hexaethylene glycol spacers [5' fluorescein + two hexaethylene glycol spacers (n1-n3, left out) before T1]) [DNA-LNK-5F]	nM	12
